Data provenance is PubChem BioAssay AID651812.

assay: qHTS for inhibitors of Vif-A3G interactions: Cherry picks; details: HeLa A3G-eYFP + Vif, 24 h; eYFP fluorescence increase; series mostly up to 36.9 µM; further: nearly all actives have a fitted effect of over 80% in size
Out of some 2,100 compounds screened, about 650 (31%) were called active. Another 16% or so got no clear call; they are omitted. The call rests on the fitted dose curve; in most records, active means well fitted inhibition curve with a large enough effect; inconclusive means small, poorly fitted or top-dose-only effect; inactive means flat fitted curve, though single readings scatter. Some of the results follow.
# output must be one of active, inactive

Prompt: What did this assay record as the result for `COc1ccccc1Nc1cc2cc(Br)ccc2c(=O)[nH]1` ?
Completion: inactive

Prompt: What did this assay record as the result for `COc1cccc2nccc(/C=C/c3ccc(N(C)C)cc3)c12` ?
Completion: active

Prompt: What did this assay record as the result for CCCN1C(=O)C(Cc2nc3ccccc3c(=O)n2CC)c2cc(Br)ccc21 (centres undefined) ?
Completion: inactive

Prompt: What did this assay record as the result for `Cc1ccc2nc(/C(C#N)=C/c3ccc(-c4ccc(F)cc4F)o3)[nH]c2c1` ?
Completion: active

* * *

Experiment: qHTS for inhibitors of Vif-A3G interactions: Cherry picks; further: nearly all actives have a fitted effect of over 80% in size
Conditions: HeLa A3G-eYFP + Vif, 24 h; eYFP fluorescence increase; series mostly up to 36.9 µM
Source text: The recent discovery and characterization of host restriction factors, which provide a potent defense to invading retroviruses, has provided new targets for antiviral drug development. […] In the presence of an inhibitor, it is expected that Vif will be unable to degrade A3G-eYFP and/or A3F-eYFP, resulting in an increase in yellow fluorescence. […]
Among all 2,100 compounds or so, about 650 (31%) were called active. Not shown: some 16% with an inconclusive outcome. Calls follow the shape of the dose curve; as a rule, active = well fitted inhibition curve with a large enough effect; inconclusive = small, poorly fitted or top-dose-only effect; inactive = flat fitted curve, though single readings scatter. This is one part of the list.
# output must be one of active, inactive

Prompt: What did this assay record as the result for `CCN(CC)c1ccc2c(c1)oc(=O)c1c(Cl)cc(=O)oc12` ?
Completion: active

Prompt: What did this assay record as the result for `c1ccc(-c2nccc(-c3ccc4c(c3)OCO4)n2)cc1` ?
Completion: inactive

Prompt: What did this assay record as the result for `ClCc1nc2ccccc2n1Cc1ccccc1` ?
Completion: active

Prompt: What did this assay record as the result for `COc1ccccc1-c1cc(NC=O)c2ncc(-c3cccc(C(=O)N(C)C)c3)n2c1` ?
Completion: inactive

Prompt: What did this assay record as the result for `CCc1ccc(N=Nc2ccc(O)c3[nH]cnc23)cc1` ?
Completion: active

Prompt: What did this assay record as the result for `CCN1/C(=C/c2cc[n+](C)cc2)C=Cc2cc(C)ccc21` ?
Completion: active

Prompt: What did this assay record as the result for `C=CCN1C(=O)/C(=C\C=C2\N(C)c3ccccc3C2(C)C)SC1=S` ?
Completion: active

Prompt: What did this assay record as the result for `CCC(=O)Nc1nonc1-c1nc2ccccc2n1Cc1ccccc1` ?
Completion: inactive

Prompt: What did this assay record as the result for `CC1(C)CC(=O)C(C=Nc2cc(C(=O)c3ccccc3)ccc2N)=C(O)C1` ?
Completion: active

Prompt: What did this assay record as the result for `COc1ccc(N=Cc2c(O)n(-c3cccc(C)n3)c(=O)c3ccccc23)c(OC)c1` ?
Completion: active

Prompt: What did this assay record as the result for `Cc1cccc2[nH]cc(/C=C3/C=Nc4ccccc43)c12` ?
Completion: active

Prompt: What did this assay record as the result for CS(=O)(=O)Nc1cccc(C2=NN(S(C)(=O)=O)C(c3ccc4c(c3)OCO4)C2)c1 (stereo unspecified) ?
Completion: inactive

Prompt: What did this assay record as the result for O=C1N/C(=N\N=C\c2ccco2)SC1Cc1ccccc1[N+](=O)[O-] (stereo unspecified) ?
Completion: inactive

Prompt: What did this assay record as the result for `O=C(N/N=C/c1ccc2c(c1)OCO2)c1ccc2c(c1)OCCO2` ?
Completion: inactive

Prompt: What did this assay record as the result for `Oc1cccc(Nc2nc(O)c(/C=C3\C=Nc4ccccc43)s2)c1` ?
Completion: active

Prompt: What did this assay record as the result for `CCOC(=O)c1sc(NC(=S)NC(=O)c2ccco2)nc1C` ?
Completion: inactive

* * *

experiment: qHTS for inhibitors of Vif-A3G interactions: Cherry picks; settings: HeLa A3G-eYFP + Vif (tagged APOBEC3G with the HIV-1 protein that degrades it), 24 h; eYFP fluorescence increase; series mostly up to 36.9 µM; further: nearly all actives have a fitted effect of over 80% in size
Hit rate of the full screen: of about 2,100 compounds, about 650 (31%) were called active. Inconclusive results (about 16%) are left out. Calls come from the whole dose curve; as a rule, active = well fitted inhibition curve with a large enough effect; inconclusive = small, poorly fitted or top-dose-only effect; inactive = flat fitted curve, though single readings scatter. The list shows a part of the results.
# output must be one of active, inactive

Prompt: What did this assay record as the result for `O=CNc1ccc2c3c(cccc13)-c1ccccc1-2` ?
Completion: active

Prompt: What did this assay record as the result for `O=c1oc2cc(O)ccc2cc1-c1nc(-c2ccc(Cl)c(Cl)c2)cs1` ?
Completion: active

Prompt: What did this assay record as the result for `O=C(Nc1ncc(Cc2ccc(SC(F)F)cc2)s1)c1ccccc1` ?
Completion: inactive

Prompt: What did this assay record as the result for `CN(C)C(=O)c1cccc(-c2cnc3c(NC=O)cc(-c4ccccc4F)cn23)c1` ?
Completion: inactive

Prompt: What did this assay record as the result for `CCCn1nc(C(=O)N2CC(=O)Nc3ccccc32)c2ccccc2c1=O` ?
Completion: inactive

Prompt: What did this assay record as the result for `O=C(NN(c1ccccc1)c1ccccc1)c1ccc([N+](=O)[O-])o1` ?
Completion: inactive

Prompt: What did this assay record as the result for `CCOC(=O)Nc1ccc2c3c(cccc13)-c1ccccc1-2` ?
Completion: inactive

Prompt: What did this assay record as the result for CC(=O)c1cccc(-c2ccnc3c2CC(C(=O)NCc2ccc(F)c(F)c2)O3)c1 (centres undefined) ?
Completion: inactive

Prompt: What did this assay record as the result for Cc1ccc(-c2csc(NC3OC(=O)c4ccccc43)n2)cc1 (centres undefined) ?
Completion: inactive

Prompt: What did this assay record as the result for `CC(C)n1cc(/C=C2\NC(=O)N(c3cccc(Cl)c3)C2=O)c2ccccc21` ?
Completion: inactive

Prompt: What did this assay record as the result for `COc1ccc(-c2csc(-c3ccc(O)cc3)n2)cc1` ?
Completion: inactive

Prompt: What did this assay record as the result for `O=C(CSc1nc(-c2ccco2)cc(C(F)(F)F)n1)Nc1cccnc1` ?
Completion: inactive

Prompt: What did this assay record as the result for `N#Cc1c(C(F)(F)F)cc(-c2ccccc2)nc1SCc1nc(N)nc(N2CCOCC2)n1` ?
Completion: active

Prompt: What did this assay record as the result for COc1ccc2[nH]c3c(c2c1)CCNC3c1ccc([N+](=O)[O-])o1 (centres undefined) ?
Completion: active

Prompt: What did this assay record as the result for `CCCCN1C(=O)/C(=C/C=C2/CC(C)(C)CN2C)SC1=S` ?
Completion: inactive

Prompt: What did this assay record as the result for `CCN(CC)c1ccc2cc(-c3nnc(-c4cccc(Cl)c4)o3)c(=O)oc2c1` ?
Completion: active

Prompt: What did this assay record as the result for `CC(C)OC(=O)c1cc(C(=O)c2cc(F)ccc2O)coc1=N` ?
Completion: active

Prompt: What did this assay record as the result for `C=CCN1C(=O)/C(=C2/Sc3ccc(OC)cc3N2CC)SC1=S` ?
Completion: active

Prompt: What did this assay record as the result for `O=C(Cn1ncc(Cl)c(Cl)c1=O)NCC1CCCCC1` ?
Completion: inactive

Prompt: What did this assay record as the result for `O=C(CN1c2ccccc2Sc2ccccc21)NNC(=O)Nc1cccc(Cl)c1` ?
Completion: inactive

Prompt: What did this assay record as the result for `Cc1noc(C)c1COc1ccc(C(=O)NNC(=O)c2ccccc2)cc1` ?
Completion: inactive

Prompt: What did this assay record as the result for `CO/N=C\CC(=O)Nc1ccc(Cl)c(Cl)c1` ?
Completion: inactive

Prompt: What did this assay record as the result for `C=CCNc1nc(-c2ccccc2)c(C(=O)OCC)cc1C#N` ?
Completion: inactive

Prompt: What did this assay record as the result for `C=CCN1C(=O)/C(=C2/Sc3ccc(OC)cc3N2C)SC1=Nc1cccc(O)c1` ?
Completion: active

Prompt: What did this assay record as the result for COc1ccc(C2=NOC(C(=O)NCc3cccs3)C2)cc1OC (centres undefined) ?
Completion: inactive

Prompt: What did this assay record as the result for `N#Cc1c(-c2ccccc2)c(-c2ccccc2)nn(CC(=O)NNC(=O)Nc2ccccc2)c1=O` ?
Completion: inactive

Prompt: What did this assay record as the result for `COCCN1C(=O)/C(=C/c2ccc(N3CCCC3)cc2)SC1=S` ?
Completion: active

Prompt: What did this assay record as the result for `O=C(c1ccccc1F)n1c2c(c3ccccc31)CCCC2` ?
Completion: inactive

Prompt: What did this assay record as the result for COc1cccc(C2=CC(c3ccccc3)n3nnnc3N2)c1 (centres undefined) ?
Completion: inactive

Prompt: What did this assay record as the result for `Oc1ccc(-c2nc(-c3ccc(O)c(O)c3)cs2)cc1` ?
Completion: inactive

Prompt: What did this assay record as the result for `Cc1cc2ccccn2c1C(=O)c1ccc([N+](=O)[O-])o1` ?
Completion: active

Prompt: What did this assay record as the result for `COc1ccc2oc(-c3ccccc3[N+](=O)[O-])cc(=O)c2c1` ?
Completion: inactive

Prompt: What did this assay record as the result for CCOC(=S)SCC(=O)N1CCc2cc(OC)ccc2C1C1C(=O)CCCC1=O (centres undefined) ?
Completion: inactive

Prompt: What did this assay record as the result for `CCOC(=O)N1CCN(C(=O)c2ccccc2-c2ccccc2)CC1` ?
Completion: inactive
